Data origin: PubChem BioAssay (NCI)

Tested on: RPMI-8226 leukemia
Experiment: NCI tumour cell line growth inhibition, 48 h
Recorded measurements of TGI, one per entry

| molecule | tested.on | TGI |
| --- | --- | --- |
| COc1cc(-c2cc(=O)c3c(O)c(OC)c(OC)c(OC)c3o2)ccc1O | RPMI-8226 leukemia | > 100 µM |
| Cc1c(C(=O)C/C(=N/NC(=O)C[n+]2ccccc2)C(=O)Nc2ccccc2)[n+](=O)c2ccccc2n1O | RPMI-8226 leukemia | > 100 µM |

Look up and report TGI, with RPMI-8226 leukemia as system, for Cc1nc2ccccc2c(=O)n1NC(=O)c1ccc([N+](=O)[O-])cc1
> 100 µM

---

Test system: SK-MEL-2 melanoma
Assay: NCI tumour cell line growth inhibition, 48 h
Recorded measurements of TGI, one per entry

For orientation, consider the following solved cases.
| compound | TGI |
| --- | --- |
| C/C(=N\Oc1cc(Cl)ncn1)c1ccccn1 | > 100 µM |
| Cc1ccc(C)c(NC(=O)NCc2ccc(Cl)cc2)c1 | > 100 µM |
| N/C(=N\N=C\c1c[nH]c2cc(C(F)(F)F)ccc2c1=O)NO | > 10 µM |
| O=C(CN1CCN(c2ccc(Cl)cc2)CC1)N1CCN(c2nnc(-c3ccc(Cl)cc3)c(-c3ccc(Cl)cc3)n2)CC1 | > 100 µM |
| COc1ccc2nc3cc(Cl)ccc3c(N3CCN(c4ccnc(N5CCOCC5)n4)CC3)c2c1 | > 100 µM |

Look up and report TGI, with SK-MEL-2 melanoma as system, for O=C(O)c1ccccc1CC1Cc2ccc3c(c2C1=O)CCC3 (stereo unspecified)
> 100 µM

Look up and report TGI, with SK-MEL-2 melanoma as system, for Cc1cccc2c(N)c3cccc(C(=O)NCC[N+](C)(C)Cc4sccc4[N+](=O)[O-])c3nc12
> 100 µM

Look up and report TGI, with SK-MEL-2 melanoma as system, for C=CCn1c(C23CC4CC(CC(C4)C2)C3)n[nH]c1=S
> 100 µM

Look up and report TGI, with SK-MEL-2 melanoma as system, for O=c1c2ccccc2n2n1CC(O)C2 (stereo unspecified)
> 100 µM

Look up and report TGI, with SK-MEL-2 melanoma as system, for COc1cccc2c1-c1c(c3ccc([N+](=O)[O-])cc3c(=O)n1CCCCl)C2=O
> 50 µM

Look up and report TGI, with SK-MEL-2 melanoma as system, for COc1ccc2c(c1)C(=O)c1c-2c(Nc2ccc(C(C)=O)cc2)nc2ccccc12
> 100 µM

---

Recorded measurements of TGI, one per entry
System: UACC-62 melanoma
Experiment: NCI tumour cell line growth inhibition, 48 h

| cpd.smiles | tested.on | observed.measurement |
| --- | --- | --- |
| O=C1c2ccccc2-c2c1c(-c1ccc([N+](=O)[O-])cc1)nc1ccc3ccccc3c21 | UACC-62 melanoma | > 100 µM |
| CCOC(=O)C(C)(C(=O)OCC)/C(Cl)=C\Cl | UACC-62 melanoma | > 100 µM |
| Cn1nnnc1N/N=C/c1ccccc1 | UACC-62 melanoma | > 10 µM |
| CCOC(=O)/C=C/c1cc2cc(-c3csc4ccccc34)ccc2[nH]1 | UACC-62 melanoma | 19.6 µM |
| CCOC(=O)[C@H]1Nc2c(cccc2[N+](=O)[O-])[C@H]2OCC[C@@H]12 | UACC-62 melanoma | > 100 µM |

// Input: Cn1cc(C2=C(c3cccnc3)C(=O)NC2=O)c2ccccc21 . Output its TGI only.
> 25 µM

---

System: SF-268 CNS
Test: NCI tumour cell line growth inhibition, 48 h
readout: TGI (µM)
Reply numerically in µM, unit not repeated.

| compound | readout | observed.measurement |
| --- | --- | --- |
| CCN1C(=O)NC(=O)C(C)(N2C(=O)c3c(F)c(F)c(F)c(F)c3C2=O)C1=O (stereo not given) | TGI | 7.43 |
| COc1ccc(C2=NN(C(=O)c3cc(OC)c(OC)c(OC)c3)C(c3ccc(Cl)cc3)C2)cc1OC (stereo not given) | TGI | 23.6 |
| COc1cc(/C=C/C(=O)OCCc2ccccc2)ccc1O | TGI | 47.4 |

Consider the record given below.
Look up and report TGI, with SF-268 CNS as system, for CN1CCN(Cc2ccc(NC(=O)c3cncc(C#Cc4cncc5ncccc45)c3)cc2C(F)(F)F)CC1
17.6

---

System: ACHN renal
Assay: NCI tumour cell line growth inhibition, 48 h
Recorded measurements of TGI, one per entry

| cpd.smiles | tested.on | observed.measurement |
| --- | --- | --- |
| O=C(N/C(=C\c1cccc([N+](=O)[O-])c1)c1nc2[nH]c(=S)[nH]c(=O)c2[nH]1)c1ccccc1 | ACHN renal | > 100 µM |
| NCCCCN(CCCN)C(=O)c1ccccc1 | ACHN renal | > 100 µM |
| C1C[S][Ge]2([S]CCO1)[S]CCOCC[S]2 | ACHN renal | > 100 µM |
| Cc1cccc(/C=C2\CCCc3ccccc3C2=O)c1 | ACHN renal | 86.6 µM |

// Input: COc1cc(N/N=C/C#N)cc(OC)c1OC . Output its TGI only.
> 10 µM

---

Recorded measurements of TGI, one per entry
Test system: SNB-19 CNS
Experiment: NCI tumour cell line growth inhibition, 48 h

For orientation, consider the following solved cases.
| compound | TGI |
| --- | --- |
| COc1cnc2c(c1)C(=O)c1c-2n(CCCN2CCC(O)CC2)c(=O)c2cc(F)ccc12 | 1.32 µM |
| CCOC(=O)C1=C(C)OC(=O)[C@@]2(OC)C=C(Cl)[C@@]12C | > 100 µM |
| O=C(O)c1ccc(-c2nc3ccc(Cl)cc3[nH]2)cc1 | > 100 µM |
| C=CCCCC1SC2=C(CC)CCCN2C1=O (stereo unspecified) | > 100 µM |
| Oc1ccc(O)c(-c2cc(-c3ccccc3)nn2-c2ccccc2)c1 | > 100 µM |

Consider the record given below.
Look up and report TGI, with SNB-19 CNS as system, for Cn1nnnc1N/N=C/c1ccccc1
> 10 µM

---

Recorded measurements of TGI, one per entry
Test system: DMS 114 small cell lung
Experiment: NCI tumour cell line growth inhibition, 48 h

For orientation, consider the following solved cases.
| compound | TGI |
| --- | --- |
| CC(=O)O[C@]1(C)OC(=O)[C@@H](C)N1[N+](=O)[O-] | > 100 µM |
| COc1ccc(C(=O)C(C(=O)C(=O)Nc2ccc(Cl)c(Cl)c2)c2ccc(OC)cc2)cc1 (stereo not drawn) | > 100 µM |

Consider the record given below.
Look up and report TGI, with DMS 114 small cell lung as system, for CCCCCCCCOC(CO)CO
> 100 µM

---

Recorded measurements of TGI, one per entry
System: MDA-MB-435
Assay: NCI tumour cell line growth inhibition, 48 h

For orientation, consider the following solved cases.
| compound | tested.on | TGI |
| --- | --- | --- |
| COc1cccc2c1-c1c(c3ccc([N+](=O)[O-])cc3c(=O)n1CCCCl)C2=O | MDA-MB-435 | > 50 µM |
| C=CC(C=O)C1(O)CCOC(=O)/C1=C\N (stereo unspecified) | MDA-MB-435 | > 100 µM |
| Fc1ccc(OCc2nc3cc(C(F)(F)F)ccc3nc2-c2ccccc2)cc1 | MDA-MB-435 | > 100 µM |

// Input: CCC(=O)N1NC(=O)C(CC)(CC)C1=O . Output its TGI only.
> 100 µM

// Input: CCOC(=O)C1=C(C)OC(=O)[C@@]2(OC)C=C(Cl)[C@@]12C . Output its TGI only.
> 100 µM

// Input: C=C(C)C1CC2(C)C(C)CC(OC(=O)/C(C)=C\C)CC2C(OC(=O)/C(C)=C\C)C1O (stereo unspecified) . Output its TGI only.
> 100 µM

---

Test system: OVCAR-8 ovarian
Assay: NCI tumour cell line growth inhibition, 48 h
Recorded measurements of TGI, one per entry

For orientation, consider the following solved cases.
| compound | TGI |
| --- | --- |
| COc1ccc(/C=C2\N=C3Sc4c(nc[nH]c4=O)N3C2=O)cc1 | > 100 µM |
| O=[As](O)(O)c1ccc(N=Nc2ccc([As](=O)(O)O)cc2)cc1 | > 100 µM |

Consider the record given below.
// Input: C=CC(C=O)C1(O)CCOC(=O)/C1=C\N (stereo not drawn) . Output its TGI only.
> 100 µM

---

System: U251 CNS
Experiment: NCI tumour cell line growth inhibition, 48 h
readout: TGI

| compound | observed.measurement |
| --- | --- |
| C=CC[P+](c1ccccc1)(c1ccccc1)c1ccccc1 | > 100 µM |
| Cc1cc(=O)[nH]o1 | > 100 µM |
| CCC1(CCSC(=N)N)C(=O)NC(=O)NC1=O | > 100 µM |
| O=C1c2ccccc2C(=Cc2ccccc2)c2ccccc21 | 9.23 µM |
| CN=C(NC#N)NCCSCc1nc[nH]c1C | > 100 µM |

// Input: O=c1ssc(Cl)c1Nc1c(Cl)ssc1=O . Output its TGI only.
36.8 µM

// Input: CCCCCC[C@H]1CC(=O)C2CCCC[C@@]23CC[C@H](CCl)N13 (some centres undefined) (tested in a mixture with another compound) . Output its TGI only.
> 100 µM

// Input: O=C1C(c2c(O)[nH]c3ccc(S(=O)(=O)O)cc23)=Nc2ccc(Br)cc21 . Output its TGI only.
> 100 µM

// Input: COc1ccc2nc3cc(Cl)ccc3c(N3CCN(c4ccnc(N5CCOCC5)n4)CC3)c2c1 . Output its TGI only.
> 100 µM

// Input: COc1ccc(/C=C2\N=C3Sc4c(nc[nH]c4=O)N3C2=O)cc1 . Output its TGI only.
> 100 µM

// Input: O=C(O)c1ccccc1CC1Cc2ccc3c(c2C1=O)CCC3 (centres undefined) . Output its TGI only.
> 100 µM

// Input: CO/N=C(/C(=O)N(C(=O)/C(=N/OC)c1csc(NC(c2ccccc2)(c2ccccc2)c2ccccc2)n1)n1cnn(CC(=O)OC(C)(C)C)c1=O)c1csc(NC(c2ccccc2)(c2ccccc2)c2ccccc2)n1 . Output its TGI only.
> 10 µM

// Input: Cc1noc(C)c1-c1cc(O)cc(C(O)c2ccccc2)c1 (centres undefined) . Output its TGI only.
> 100 µM
